# study_system: Cdr1 fused with EGFP (Candida albicans)
# Sequence (Q5ANA3 whole entry, the tested form may be a part): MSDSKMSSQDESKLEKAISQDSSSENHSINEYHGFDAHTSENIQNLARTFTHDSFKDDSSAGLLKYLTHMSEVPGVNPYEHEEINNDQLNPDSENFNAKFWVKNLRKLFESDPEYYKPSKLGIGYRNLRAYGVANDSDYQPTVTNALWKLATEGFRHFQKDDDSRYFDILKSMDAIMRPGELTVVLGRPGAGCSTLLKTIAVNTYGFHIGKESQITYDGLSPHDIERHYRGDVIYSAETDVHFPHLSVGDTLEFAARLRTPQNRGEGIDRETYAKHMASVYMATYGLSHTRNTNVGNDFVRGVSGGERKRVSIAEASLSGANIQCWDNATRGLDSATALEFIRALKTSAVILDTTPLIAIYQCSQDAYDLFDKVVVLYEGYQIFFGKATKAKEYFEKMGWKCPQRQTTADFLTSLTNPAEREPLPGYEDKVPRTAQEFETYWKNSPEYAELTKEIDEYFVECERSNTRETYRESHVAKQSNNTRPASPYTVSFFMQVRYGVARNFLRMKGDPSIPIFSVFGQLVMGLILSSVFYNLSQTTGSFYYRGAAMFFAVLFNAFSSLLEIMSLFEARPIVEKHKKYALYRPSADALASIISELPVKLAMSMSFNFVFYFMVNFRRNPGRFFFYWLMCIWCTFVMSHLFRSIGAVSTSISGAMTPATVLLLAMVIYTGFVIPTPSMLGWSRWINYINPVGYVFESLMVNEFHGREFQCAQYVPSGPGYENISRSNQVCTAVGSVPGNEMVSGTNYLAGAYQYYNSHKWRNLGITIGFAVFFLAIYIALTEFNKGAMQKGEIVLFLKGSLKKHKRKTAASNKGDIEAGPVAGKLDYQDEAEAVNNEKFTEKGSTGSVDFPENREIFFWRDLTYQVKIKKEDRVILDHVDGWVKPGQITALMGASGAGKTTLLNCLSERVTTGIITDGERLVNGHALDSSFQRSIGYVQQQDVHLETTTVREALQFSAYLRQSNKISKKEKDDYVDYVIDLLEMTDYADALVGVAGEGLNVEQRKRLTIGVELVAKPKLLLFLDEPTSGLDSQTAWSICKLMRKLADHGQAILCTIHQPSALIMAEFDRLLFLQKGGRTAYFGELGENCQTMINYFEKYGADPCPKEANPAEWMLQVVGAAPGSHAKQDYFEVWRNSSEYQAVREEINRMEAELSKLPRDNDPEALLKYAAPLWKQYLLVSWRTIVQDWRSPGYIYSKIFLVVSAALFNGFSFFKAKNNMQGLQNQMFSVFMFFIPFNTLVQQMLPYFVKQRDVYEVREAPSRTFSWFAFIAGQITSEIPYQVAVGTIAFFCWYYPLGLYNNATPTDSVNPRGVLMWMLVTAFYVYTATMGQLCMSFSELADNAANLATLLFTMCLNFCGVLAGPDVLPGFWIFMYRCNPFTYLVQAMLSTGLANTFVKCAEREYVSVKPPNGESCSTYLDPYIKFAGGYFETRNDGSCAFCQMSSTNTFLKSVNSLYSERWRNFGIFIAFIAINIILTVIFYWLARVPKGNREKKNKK
# assay_remarks: Microscale thermophoresis
# Format: binding, C. albicans
measured_parameter: Kd (µM)
Please respond with the number in µM and leave the unit unwritten.

Per the records, this compound ( OC(Cn1cncn1)(Cn1cncn1)c1ccc(F)cc1F [fluconazole] ) has Kd equal to 61.4
